target: FGF receptor/BKL complex (human, UniProt Q86Z14 1-1044); assay: cell-based or functional assay
Sequence (Q86Z14 whole entry, one chain of several): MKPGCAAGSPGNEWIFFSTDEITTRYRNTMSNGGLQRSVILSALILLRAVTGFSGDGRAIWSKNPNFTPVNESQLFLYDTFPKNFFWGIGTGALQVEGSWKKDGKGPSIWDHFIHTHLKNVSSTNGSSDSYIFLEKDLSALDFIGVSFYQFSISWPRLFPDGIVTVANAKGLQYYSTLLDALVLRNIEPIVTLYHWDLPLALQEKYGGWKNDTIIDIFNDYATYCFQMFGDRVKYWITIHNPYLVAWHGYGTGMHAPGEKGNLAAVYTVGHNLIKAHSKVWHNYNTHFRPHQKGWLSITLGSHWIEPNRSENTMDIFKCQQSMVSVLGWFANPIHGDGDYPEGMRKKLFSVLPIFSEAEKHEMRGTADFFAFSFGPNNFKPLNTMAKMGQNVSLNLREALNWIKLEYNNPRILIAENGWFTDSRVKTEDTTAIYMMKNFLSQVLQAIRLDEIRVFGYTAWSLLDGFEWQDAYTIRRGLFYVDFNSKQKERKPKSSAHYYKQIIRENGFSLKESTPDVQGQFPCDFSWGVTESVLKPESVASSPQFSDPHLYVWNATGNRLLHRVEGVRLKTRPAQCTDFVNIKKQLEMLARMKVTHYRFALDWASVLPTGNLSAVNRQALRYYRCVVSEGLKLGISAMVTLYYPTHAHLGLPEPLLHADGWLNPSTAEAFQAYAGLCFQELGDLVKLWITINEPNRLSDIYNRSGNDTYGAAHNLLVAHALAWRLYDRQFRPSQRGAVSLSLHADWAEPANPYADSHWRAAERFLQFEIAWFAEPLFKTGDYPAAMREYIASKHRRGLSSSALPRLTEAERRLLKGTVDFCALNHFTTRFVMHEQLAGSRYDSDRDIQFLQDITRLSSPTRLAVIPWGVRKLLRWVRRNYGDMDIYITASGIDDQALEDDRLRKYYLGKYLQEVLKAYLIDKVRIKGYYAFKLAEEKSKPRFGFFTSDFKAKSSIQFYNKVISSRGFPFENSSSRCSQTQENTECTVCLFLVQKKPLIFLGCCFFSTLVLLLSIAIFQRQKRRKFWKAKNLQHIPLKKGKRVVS
Known FGF1 receptor potency [EC50] nM 0.1% HSA of a selection of binders
Quick reminder: number only, in nM, skip the unit.

binder="S{Beta-27}-[2-[2-[[2-[2-[2-[[2-[2-[2-[[(4S)-4-carboxy-4-(17-carboxyheptadecanoyl-amino)butanoyl]amino]ethoxy]ethoxy]acetyl]amino]ethoxy]ethoxy]acetyl]amino]-eth … (ligand, Cys27 of the GLP-1 part (GLP-1(7-37) numbering; residue 21 of the chain) S-alkylated with substituent Chem. 7) HGEGTFTSDVSSYLEEQAAKCFIAWLVKGGGGAQPGAQPGAQPGAQPGAQPGAQPGAQPGAQPGAQPGAQPGAQPGAQPGAQPGAQPGAQPGAQPAHPIPDSSPLLQFGGQVRQRYLYTDDAQQTEAHLEIREDGTVGGAADQSPESLLQLKALKPGVIQILGVKTSRFLCQRPDGALYGSLHFDPEACSFRELLLEDGYNVYQSEAHGLPLHLPGQKSPHRDPAPRGPARFLPLPGLPPALPEPPGILAPQPPDVGSSDPLSLVGGSQGRSPSYES" recordedmeasurement=1.14

Qu. // returns reported FGF1 receptor potency [EC50] nM 0.1% HSA for input S{Beta-36}-[2-[2-[[2-[2-[2-[[2-[2-[2-[[(4S)-4-carboxy-4-(17-carboxyheptadecanoyl-amino)butanoyl]amino]ethoxy]ethoxy]acetyl]amino]ethoxy]ethoxy]acetyl]amino]-eth … (ligand, Cys36 of the GLP-1 part (GLP-1(7-37) numbering; residue 30 of the chain) S-alkylated with substituent Chem. 7) HGEGTFTSDVSSYLEEQAAREFIAWLVKGCGGAQPGAQPGAQPGAQPAHPIPDSSPLLQFGGQVRQRYLYTDDAQQTEAHLEIREDGTVGGAADQSPESLLQLKALKPGVIQILGVKTSRFLCQRPDGALYGSLHFDPEACSFRELLLEDGYNVYQSEAHGLPLHLPGQKSPHRDPAPRGPARFLPLPGLPPALPEPPGILAPQPPDVGSSDPLSLVGGSQGRSPSYES
Ans. 0.73

Measured values drawn from patent US20240400635A1 for this set.
